Give viability, T/C for every item shown.
# Test system: 935938-334-R-J1-PDC complex spheroid viability;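 also: spheroids exposed to drugs for seven days before viability read; 100% = DMSO vehicle control wells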
# test description: Anticancer human tumor 935938-334-R-J1-PDC patient-derived small intestine adenocarcinoma cell line growth inhibition [POLQ]
# condition description: second compound 0.1 µM; first compound 0.316 µM; active compounds read low
Numbers only, in %.

In the examples that follow, each entry is paired with its recorded viability, T/C.
- compound: "CC1COCCN1c1cc(C2(O)CC3CCC(C2)O3)c2cnn(-c3ccn[nH]3)c2n1 (stereo not given) + Cc1cccc(N(C)C(=O)C2C(O)CCN2c2nc(C)cc(C(F)(F)F)c2C#N)c1"
  target entity: "935938-334-R-J1-PDC complex spheroid viability"
  outcome measure: "viability, T/C"
  value units: "%"
  endpoint result: 40.1
- compound: "O=C(Nc1ccc(O)c(NS(=O)(=O)c2ccc(F)cc2)c1)c1ccc(-c2ccccc2)cc1 + COC1C(OC(N)=O)C(O)C(Oc2ccc3c(O)c(NC(=O)c4ccc(O)c(CC=C(C)C)c4)c(=O)oc3c2C)OC1(C)C"
  target entity: "935938-334-R-J1-PDC complex spheroid viability"
  outcome measure: "viability, T/C"
  value units: "%"
  endpoint result: 86.5
- compound: "COc1ccc([C@@H](O)c2cc(-c3ncnc4cc(N5CCOCC5)ccc34)c(F)cc2Cl)nn1 + COC1C(OC(N)=O)C(O)C(Oc2ccc3c(O)c(NC(=O)c4ccc(O)c(CC=C(C)C)c4)c(=O)oc3c2C)OC1(C)C"
  target entity: "935938-334-R-J1-PDC complex spheroid viability"
  outcome measure: "viability, T/C"
  value units: "%"
  endpoint result: 75
- compound: "C#Cc1c(F)ccc2cc(O)cc(-c3ncc4c(N5CC6CCC(C5)N6)nc(OCC56CCCN5CC(F)C6)nc4c3F)c12 (stereo not given) + Nc1ccc(C#CCN(C(=O)Cc2ncc(C(F)(F)F)cc2C(F)(F)F)c2ccc(F)cc2)nn1"
  target entity: "935938-334-R-J1-PDC complex spheroid viability"
  outcome measure: "viability, T/C"
  value units: "%"
  endpoint result: 90.4

As a next step, examine the compound that follows.
Q: Name the recorded viability, T/C of the compound listed here: COc1ccc([C@@H](O)c2cc(-c3ncnc4cc(N5CCOCC5)ccc34)c(F)cc2Cl)nn1 + Nc1ccc(C#CCN(C(=O)Cc2ncc(C(F)(F)F)cc2C(F)(F)F)c2ccc(F)cc2)nn1
Ans: 105

Ref: PubChem BioAssay AID1963829
